Reported TGI values for a set of compounds
Tested on: SN12C renal
EXPERIMENT NOTES: NCI tumour cell line growth inhibition, 48 h
Report as a plain number; the unit µM is understood.

Below are worked cases with known answers.
COMPOUND | TGI [µM]
CCCC/C=C/C=C/C=C/CCCCCCCC(=O)OCC(COC(=O)CCCCCCC/C=C/C1C=CC(CCCC)C(C(=O)O)C1C(=O)O)OC(=O)CCCCCCC/C=C/C=C/C=C/CCCC (stereo unspecified) (tested in a mixture with another compound) | 44.3
COc1cc2c(cc1OC)C(Cl)C(c1ccc(F)cc1)=C2Cl (stereo unspecified) | 27
O=[N+]([O-])c1cc([N+](=O)[O-])c(C(F)(F)F)cc1NN=C(c1ccc(O)cc1)c1ccc(O)cc1 | 13.4

Form field: reported TGI of O=C1SC(SCc2ccccc2)=NC12CC2c1ccccc1 (stereo unspecified) 44.3

Form field: reported TGI of CN1C(=O)C(=O)N2c3ccc(Cl)cc3C3(c4ccccc4)N=CC12O3 (stereo unspecified) 13.7

###

Tested on: COLO 205 colon
EXPERIMENT NOTES: NCI tumour cell line growth inhibition, 48 h; in the data active = GI50 below about 0.43 µM; inactive = the rest
// one of active, inactive, no free text

What classification did `Cc1cc2c(cc1C)[n+](=O)c(C(=O)c1ccccc1)c(C(F)F)n2[O-]` end up with in this test? inactive

What classification did `c1ccc(-c2n(Cc3ccc4ccccc4n3)cc[n+]2Cc2ccc3ccccc3c2)cc1` end up with in this test? inactive

What classification did `CCNC(=O)C#Cc1ccc2c(C(=Nc3ccc(CN(C)C)cc3)c3ccccc3)c(O)[nH]c2c1` end up with in this test? active

What classification did `Cc1[cH-]c(=O)n(-c2ccccc2)n1.[Au+].[Au].c1ccc([PH+](c2ccccc2)c2ccccc2)cc1.c1ccc([PH+](c2ccccc2)c2ccccc2)cc1` end up with in this test? inactive

What classification did `COc1cc(/C=C2\CN(S(=O)(=O)c3ccc(C)cc3)C/C(=C\c3cc(CN4CCCC4)c(O)c(OC)c3)C2=O)cc(CN2CCCC2)c1O` end up with in this test? inactive

###

Reported TGI values for a set of compounds
System: M14 melanoma
EXPERIMENT NOTES: NCI tumour cell line growth inhibition, 48 h
Report as a plain number; the unit µM is understood.

Below are worked cases with known answers.
COMPOUND | UNIT ABBREV | TGI
O=C1/C(=C\c2ccc(Cl)cc2Cl)Sc2scc(-c3ccc(O)c(O)c3)[n+]21 | µM | 40.6
COc1ccccc1NC(=O)c1cc2cc(Br)ccc2cc1O | µM | 11.9
C=C(C)C12OC1[C@@]1(C)C(=CC2=O)CCC(O)[C@@H]1C (some centres not stated) | µM | 18.1

# input for lookup
Form field: reported TGI of `CC(C)=C[C@H]1C[C@H](C)[C@H]2CC[C@H](C)c3c2c1c(C)c1ncoc31` 29.3

###

Tested on: IGROV1 ovarian
EXPERIMENT NOTES: NCI tumour cell line growth inhibition, 48 h
REPORTED METRIC: GI50

Below are worked cases with known answers.
COMPOUND STRING | TGT | RESULT
C#Cc1cccc(Nc2nc3cc([N+](=O)[O-])ccc3nc2Nc2ccc(O)cc2)c1 | IGROV1 ovarian | 1.78 µM
COc1c2ccccc2c(OC)c2[nH]c(=O)ccc12 | IGROV1 ovarian | 5.73 µM
Fc1cc(-c2nnc3n2N=C(c2ccc(Cl)cc2)CS3)c(Cl)cc1Cl | IGROV1 ovarian | 4.25 µM

Form field: reported GI50 of `O=C1c2c(F)c(F)c(F)c(F)c2C(=O)N1c1ccc(F)cc1F` 6.54 µM

Form field: reported GI50 of `[O-][Cl+3]([O-])([O-])[O-].[O]=[Ru]=[O].c1ccc(-c2ccccn2)nc1.c1ccc(-c2ccccn2)nc1` 58.8 µM

###

Tested on: NCI-H460 lung
EXPERIMENT NOTES: NCI tumour cell line growth inhibition, 48 h
Respond with met for TGI values of 20 µM and above, not met for values below.

MOLECULE | TGT | CLASS NAME
[O-][Cl+3]([O-])([O-])[O-].[O]=[Ru]=[O].c1ccc(-c2ccccn2)nc1.c1ccc(-c2ccccn2)nc1 | NCI-H460 lung | met
CN(C)C=Nc1nc(=O)n(C2CCC(CO)O2)cc1F (stereo not given) | NCI-H460 lung | met
Cc1cc(Nc2ccc(C)c(Cl)c2)n2nc(C(F)(F)F)nc2n1 | NCI-H460 lung | met
COCOC1/C=C/CCCCC(=O)C(C)C#CC1 (stereo not given) | NCI-H460 lung | met
NCCNCCNCCN | NCI-H460 lung | met
O=S(=O)(O)c1cc(N=Nc2c(O)ccc3ccccc23)cc2c(S(=O)(=O)O)cccc12 | NCI-H460 lung | met
O=C1OCC2=C1C(c1cccc(Br)c1)c1cc3c(cc1N2CCO)OCCO3 (stereo not given) | NCI-H460 lung | not met
CN1CCN(c2ccc(Nc3ncc(Cl)c(NC[C@@H]4CCCO4)n3)cc2)CC1 | NCI-H460 lung | not met

Quick check: does CC(C)(C)[Si](C)(C)OC1[C@@H](O[Si](C)(C)C(C)(C)C)[C@@H](CNC(=O)NC(=O)C(F)(F)F)O[C@H]1n1cnc2c(NC(=O)Nc3ccccc3)ncnc21 (stereo not given in full) have TGI greater than or equal to 20 µM? not met

###

Tested on: IGROV1 ovarian
EXPERIMENT NOTES: NCI tumour cell line growth inhibition, 48 h
REPORTED METRIC: TGI

COMPOUND | TGT | RESULT
COc1ccc(S(=O)(=O)n2c3c(c4ccccc42)[C@@H]2[C@@H](CCCN2C(=O)CS(=O)c2ccc(C)cc2)[C@H](Cl)C3)cc1 (stereo not given in full) | IGROV1 ovarian | > 100 µM
N#CCCC[Si]12OCCN(CCO1)CCO2 | IGROV1 ovarian | > 100 µM
O=C1NC(=NCc2ccccc2)S/C1=C\c1ccc2ncccc2c1 | IGROV1 ovarian | > 25 µM
O=C1c2ccccc2-n2nnnc2C2CSCN12 (stereo not given) | IGROV1 ovarian | > 100 µM
CCCCCCc1cc2cc(-c3cn4ccsc4n3)c(=O)oc2cc1O | IGROV1 ovarian | > 100 µM
O=c1[nH]c(=O)n(C2COC(CO)C2O)cc1F (stereo not given) | IGROV1 ovarian | > 100 µM

Form field: reported TGI of CCOC(=O)C1Sc2ccccc2N=C1C (stereo not given) > 100 µM

Form field: reported TGI of `Cc1cc(Nc2ccc(C)c(Cl)c2)n2nc(C(F)(F)F)nc2n1` > 100 µM

Form field: reported TGI of `O=C1C(Br)=C(Br)C(=O)c2ccc(=O)ccc21` > 66.1 µM

Form field: reported TGI of `CC1=NN(c2nc(N)nc(COc3ccc(N)cc3)n2)C(C)(C)C1` > 100 µM

Form field: reported TGI of `CCNC(=O)C#Cc1ccc2c(C(=Nc3ccc(CN(C)C)cc3)c3ccccc3)c(O)[nH]c2c1` > 3.29 µM

Form field: reported TGI of `C=CCNC(=S)N/C=C(\C#N)C(N)=O` > 100 µM

Form field: reported TGI of C[C@]12c3c4cc(NC(=O)C(=O)NCc5ccc(-c6ccccn6)nc5)cc3Oc3cc(NC(=O)C(=O)NCc5ccc(-c6ccccn6)nc5)cc(c31)OC1C=C(NC(=O)C(=O)NCc3ccc(-c5ccccn5)nc3)C=C(O4)C12 (stereo not given in full) 40.6 µM

Form field: reported TGI of `CCOC(=O)n1cc(C2=C(c3ccc(OC)c(OC)c3)COC2=O)c2ccccc21` > 100 µM

Form field: reported TGI of O=C(NC1C=CCC2C(=O)N(c3ccccc3)C(=O)C12)OCc1ccccc1 (stereo not given) > 100 µM

###

Reported TGI values for a set of compounds
Test system: OVCAR-8 ovarian
EXPERIMENT NOTES: NCI tumour cell line growth inhibition, 48 h

Below are worked cases with known answers.
COMPOUND | TGI
C=C1C[C@H](O)[C@H](Br)C(C)(C)[C@@]12CCC(C)=C(Cl)C2 | 15.3 µM
COc1cc2c(cc1O)[C@H](C)C(c1ccc(OC)c(OC)c1)O2 (stereo partly specified) | 35.1 µM
O=C1c2cc3c(cc2CC12Cc1ccc4c(c1C2=O)CCC4)CCCC3 (stereo unspecified) | > 100 µM
NC(Cc1ccccc1)C(=O)NC(Cc1ccccc1)NC(=O)C(Cc1c[nH]c2ccccc12)C(=O)O (stereo unspecified) | > 100 µM

Form field: reported TGI of `COc1ccccc1NC(=O)c1cc2cc(Br)ccc2cc1O` 14.7 µM

Form field: reported TGI of O=C(NC1CCCCC1)NS(=O)(=O)c1ccc(N2N=C3c4ccccc4CC3C2c2ccc(Cl)cc2)cc1 (stereo unspecified) 71.7 µM

###

Tested on: HCT-15 colon
EXPERIMENT NOTES: NCI tumour cell line growth inhibition, 48 h
REPORTED METRIC: TGI

COMPOUND STRING | RESULT
CC(=O)OCCOCNC(=S)N/N=C/c1ccc([N+](=O)[O-])o1 | > 100 µM
N#C/C(N)=C(\C#N)NC=NCCO | > 100 µM

Form field: reported TGI of `Cc1ccc(S[C@@H](C)[C@@](O)(CF)CN(Cc2ccccc2)C(=O)C(F)(F)F)cc1` 55.5 µM

Form field: reported TGI of `COc1c(CC(C)=O)ccc2c1C(=O)c1ccc(C=O)c(OC(C)=O)c1C2=O` 29.5 µM

Form field: reported TGI of `NC(=S)N/N=C1\c2cc(Cl)ccc2-c2c1cc(Cl)cc2[N+](=O)[O-]` > 100 µM
